- assay-info: Pharmacokinetic study after intravenous administration
- Assay type: in vivo, SD rats
- test-parameters: female, Sprague-Dawley (SD), rat, plasma, iv; after 12 h, rats, i.v., 10 mg/kg; read-out: plasma MTX concentration
readout-label: concentration at 12 h (ng/mL)

- compound: "CN(Cc1cnc2nc(N)nc(N)c2n1)c1ccc(C(=O)N[C@@H](CCC(=O)O)C(=O)O)cc1 [free MTX, Methotrexate]"
  unit-spec: "ng/mL"
  endpoint-result: 1140

---

- assay-info: Pharmacokinetic study after intravenous administration
- Type: in vivo, SD rats
- test-parameters: female, Sprague-Dawley (SD), rat, plasma, iv; after 0.25 h, rats, i.v., 10 mg/kg; read-out: plasma MTX concentration

- compound: "CN(Cc1cnc2nc(N)nc(N)c2n1)c1ccc(C(=O)N[C@@H](CCC(=O)O)C(=O)O)cc1 [free MTX, Methotrexate]"
  unit-spec: "ng/mL"
  concentration at 0.25 h: 13500
